Biological target: T1, Mutant CD33-GFP M1 (W22A) on 293FT cells (UniProt P20138 18-364)
T1 construct: whole, on cells; not shown: GFP fused to CD33
T1 sequence (P20138 18-364 W22A): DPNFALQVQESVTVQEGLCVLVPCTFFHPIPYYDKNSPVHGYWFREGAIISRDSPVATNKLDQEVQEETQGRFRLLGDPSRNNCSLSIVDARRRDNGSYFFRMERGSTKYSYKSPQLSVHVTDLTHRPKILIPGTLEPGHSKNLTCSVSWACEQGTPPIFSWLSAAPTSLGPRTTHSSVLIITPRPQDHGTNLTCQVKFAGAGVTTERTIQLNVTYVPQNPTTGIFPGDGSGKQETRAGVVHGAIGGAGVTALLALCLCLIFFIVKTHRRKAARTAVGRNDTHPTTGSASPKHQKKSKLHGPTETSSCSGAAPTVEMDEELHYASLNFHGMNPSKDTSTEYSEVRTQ
Test: FACS, mutant CD33-GFP on 293FT cells
This listing pairs binders with measured FACS binding data.

BINDER	FACS binding data
sdCD33_10 (VHH) VHH: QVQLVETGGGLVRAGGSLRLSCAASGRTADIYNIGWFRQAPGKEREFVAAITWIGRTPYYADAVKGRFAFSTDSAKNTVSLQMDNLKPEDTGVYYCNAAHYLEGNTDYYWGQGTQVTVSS	99.1
hu195 (antibody, V domains shown) VH: QVQLVQSGAEVKKPGSSVKVSCKASGYTFTDYNMHWVRQAPGQGLEWIGYIYPYNGGTGYNCIKFKSKATITADESTNTAYMELSSLRSEDTAVYYCARGRPAMDYWGQGTLVTVSS VL: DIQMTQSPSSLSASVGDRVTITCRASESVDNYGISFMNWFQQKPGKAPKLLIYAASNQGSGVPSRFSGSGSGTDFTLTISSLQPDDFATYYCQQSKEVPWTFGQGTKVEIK	99.3
sdCD33_5 (VHH, sdAb from a naive llama phage library; also called 413; sdAb413) VHH: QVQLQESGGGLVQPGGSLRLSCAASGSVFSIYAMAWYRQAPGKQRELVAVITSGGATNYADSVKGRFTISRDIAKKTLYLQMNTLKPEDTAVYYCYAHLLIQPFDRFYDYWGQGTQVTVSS	76.4
sdCD33_6 (VHH, sdAb from a naive llama phage library; also called 416; sdAb416) VHH: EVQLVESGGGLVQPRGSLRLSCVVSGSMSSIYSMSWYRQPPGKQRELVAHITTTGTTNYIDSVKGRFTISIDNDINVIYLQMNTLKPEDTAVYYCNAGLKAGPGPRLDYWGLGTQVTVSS	1.25
sdCD33_11 (VHH, sdAb from a naive llama phage library; also called 430; sdAb430) VHH: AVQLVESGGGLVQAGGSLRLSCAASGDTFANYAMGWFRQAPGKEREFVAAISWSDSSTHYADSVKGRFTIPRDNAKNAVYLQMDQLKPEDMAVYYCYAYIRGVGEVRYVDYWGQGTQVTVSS	99.4
sdCD33_3 (VHH) VHH: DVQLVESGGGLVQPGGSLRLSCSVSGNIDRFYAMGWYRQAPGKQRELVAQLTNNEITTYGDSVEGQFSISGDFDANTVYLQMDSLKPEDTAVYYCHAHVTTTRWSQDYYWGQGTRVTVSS	99.4
sdCD33_8 (VHH, sdAb from a naive llama phage library; also called 424; sdAb424) VHH: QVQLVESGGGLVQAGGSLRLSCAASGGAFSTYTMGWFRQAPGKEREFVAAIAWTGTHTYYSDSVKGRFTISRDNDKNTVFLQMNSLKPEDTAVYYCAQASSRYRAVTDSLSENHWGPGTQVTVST	80.1
sdCD33_4 (VHH) VHH: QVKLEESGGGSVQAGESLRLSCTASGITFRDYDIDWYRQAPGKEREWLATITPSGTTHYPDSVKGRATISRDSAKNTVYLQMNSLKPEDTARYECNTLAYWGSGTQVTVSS	99.3
sdCD33_2 (VHH) VHH: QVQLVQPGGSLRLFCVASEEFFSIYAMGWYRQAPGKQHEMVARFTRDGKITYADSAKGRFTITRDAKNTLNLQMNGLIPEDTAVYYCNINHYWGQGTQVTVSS	8.08
sdCD33_9 (VHH, sdAb from a naive llama phage library; also called 426; sdAb426) VHH: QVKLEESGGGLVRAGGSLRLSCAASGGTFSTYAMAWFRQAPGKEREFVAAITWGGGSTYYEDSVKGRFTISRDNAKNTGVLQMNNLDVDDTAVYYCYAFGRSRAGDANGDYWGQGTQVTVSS	99.5
sdCD33_7 (VHH, sdAb from a naive llama phage library; also called 420; sdAb420) VHH: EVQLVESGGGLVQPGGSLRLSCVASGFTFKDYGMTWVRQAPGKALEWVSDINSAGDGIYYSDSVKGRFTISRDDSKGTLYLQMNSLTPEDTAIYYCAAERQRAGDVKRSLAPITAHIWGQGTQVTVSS	98.4
